Origin of values: a melting point compilation (Tetko et al.; mined from patent text by program, amines drawn as free bases though some values may be those of a salt)

I'd appreciate it if you could supply melting point values for the items below.

# count of solved cases: 2
compound	parameter_measured	obs_value
CCCCCS(=O)(=O)NC(=O)C=Cc1ccc(OCCCC#N)cc1Oc1ncc(C(F)(F)F)cc1Cl	melting point	165 to 166 °C
O=C(Cc1ccccc1Cl)Nc1ccc(C(=O)N2CCCCc3sccc32)cc1	melting point	178 to 180 °C

Report melting point for each item below.
1. CCOC(=O)C(C)ON=C(C)C (configuration not stated)
2. CCOC(=O)Nc1ccccc1SCc1ncon1
3. CCCCCCCCCCNc1ccc(C(=O)Nc2cc(C(=O)NCCSC)ccc2OC)cc1

Found:
["59 to 61 °C", "55 °C", "100 to 104 °C"]

Report melting point for each item below.
1. CCCCCCCCSc1ccc(CC(NC(C)=O)(C(=O)OCC)C(=O)OCC)cc1
2. CCOC(OCC)c1nc2sc(C)c(C)n2c(=O)c1C
3. Cc1ccccc1C1CCN(CCc2c[nH]c3ccccc23)CC1
4. O=C(O)c1ccc(OCCCCCCO)cc1
5. O=C(O)c1ccc(Oc2ccccc2C(=O)O)cc1
6. Cc1c(C)c2c(c(C)c1NC(=O)CC(C)(C)C)C(c1ccccc1)C(C)(C)O2 (configuration not stated)
7. Oc1ccc(N2CCN(CC[C@H]3CC[C@H](Nc4ncccn4)CC3)CC2)cc1

Found:
1. 82 to 84 °C
2. 84 to 85 °C
3. 111 to 112 °C
4. 132 to 135 °C
5. 220 to 223 °C
6. 214 to 215 °C
7. 192 to 194 °C

Report melting point for each item below.
1. CCOC(=O)C1=C(C(Br)Br)Nc2ncnn2C1C (configuration not stated)
2. CCOC(=O)/C=C/c1ccc(O)cc1Oc1ncc(C(F)(F)F)cc1Cl
3. CCCc1nc(N)nc(N)c1N1CCN(c2ccc(C#N)cc2)CC1
4. CCCCn1cc(C(=O)OCC)c(NC(=O)Nc2ccccc2)n1
5. CCCONC(=O)c1cc(OC)cc(Oc2cccc(C(F)(F)F)c2)n1
6. N=C(Nc1ccc(Cl)cc1)NC1CCCCC1
7. CCOC(=O)c1[nH]c2cc(Cl)cc(Cl)c2c1NCCC(=O)c1ccccc1
8. CCCCCCCCCCCCCCCCCCOc1cc(NC(C)=O)cc([N+](=O)[O-])c1

Found:
170 to 171 °C
124 °C
> 300 °C
118 to 120 °C
75 to 77 °C
187 to 190 °C
195 to 197 °C
103 to 107 °C

Report melting point for each item below.
1. Clc1ccccc1C=Nc1c2c(nc3ccccc13)CCCC2
2. N[C@@H](C/C(=C\C1CCCCC1)C(=O)O)C(=O)O

Found:
165 to 166 °C
205 °C

====

I'd appreciate it if you could supply melting point values for the items below.

# count of solved cases: 6
molecule	parameter_measured	obs_value
CN(C)C(=O)c1cccc(NC(=O)Oc2ccccc2)c1	melting point	151 to 153 °C
CCNc1ccc(F)cc1OCc1ccccc1	melting point	58 to 59 °C
COc1cc2c(cc1OC)C(=O)C(=Cc1cc(Cl)cc(Cl)c1)C2	melting point	227 °C
O=C1CCC2=C1C(c1ccc(F)c(Br)c1)C1=C(CCS1)N2 (stereo not given)	melting point	> 260 °C
O=C(Nc1ccc2c(c1)C(=O)NC2=O)C(=O)N1CCC(Cc2ccccc2)CC1	melting point	239 to 241 °C
CCC(=O)OC1(C(=O)CCl)C(C)CC2C3CCC4CC(=O)CCC4(C)C3(F)C(=O)CC21C (stereo not given)	melting point	184 to 186 °C

Report melting point for each item below.
1. CN(C(=O)c1ccco1)c1cccc(-c2nc(=O)c3ccccc3s2)n1
2. CC(Nc1ccccc1)=C(C#N)C(=O)Nc1ccccc1Cl

Found:
186 to 187 °C
110 to 112 °C

Report melting point for each item below.
1. O=c1c2c([nH]n1-c1cc(OCC3CCCSC3)c(Cl)cc1F)CCCC2 (stereo not given)
2. CC1CCC(C(C)C)C(OC(=O)C2(CC(=O)OC(C)(C)C)C(=O)N(Cc3ccc(Br)cc3F)C(=O)c3cccn32)C1 (stereo not given)

Found:
1: 96 to 100 °C; 2: 99 to 100 °C

====

parameter_measured: melting point

Report melting point for each item below.
1. CC(=O)OC1CC2CCC3C4CCC(C(C)=O)C4(C)CC(=O)C3C2(C)CC1Br (stereo not given)
2. O=C(CCCCCCS(=O)c1ccc(Cl)cc1)NO (stereo not given)
3. CCCC(=O)c1cnc2c(C3CO3)cccc2c1Nc1ccccc1C (stereo not given)
4. O=C(O)Cc1cccc2c(-c3ccc(Br)cc3)onc12
5. CCOC(=O)c1ccc(-c2cc3c(NCc4ccc(OC)nc4)ncnc3[nH]2)cc1
6. Cc1c(C)c2c(c(C)c1N)CC(C)(CN1CCC(NC(c3ccc(F)cc3)c3ccc(F)cc3)CC1)O2 (stereo not given)
7. COc1cc(/C=C/C(=O)Oc2ccc(NC(C)=O)cc2)ccc1OC(C)=O
8. NC(=O)c1cc(NCc2cccc(Cl)c2)c([N+](=O)[O-])cc1[N+](=O)[O-]

Found:
["154 to 156 °C", "103 to 105 °C", "114 to 116 °C", "190 to 192 °C", "305 °C", "133 to 134 °C", "246 to 250 °C", "178 to 180 °C"]

Report melting point for each item below.
1. Clc1ccc(COC(CNc2ccc(Cl)c(Cl)c2)Cn2ccnc2)c(Cl)c1 (stereo not given)
2. CC(CC1CNc2nc(N)nc(O)c2C1)c1ccc(C(=O)N[C@@H](CCC(=O)O)C(=O)O)cc1 (stereo not given in full)
3. CCCCCCCCNC(=O)[C@@H]1C[C@H]1c1ccc([N+](=O)[O-])cc1 (relative stereo)
4. Cc1oc(-c2ccccc2)nc1COc1ccccc1C=CC=Cc1nnn[nH]1
5. N#Cc1nc(Cl)ccc1[N+](=O)[O-]
6. CC(C)c1nc(COCc2ccccc2)n(Cc2ccccc2)c1Sc1cccc([N+](=O)[O-])c1

Found:
["116 to 117 °C", "> 250 °C", "126 to 129 °C", "192 to 193 °C", "115 to 117 °C", "152 to 155 °C"]

Report melting point for each item below.
1. N#CCCSCc1nccc(NC(=S)NCC(F)(F)F)n1
2. O=c1[nH]nc2c3c(cccc13)Oc1ccc(COP(=O)(OCc3ccccc3)OCc3ccccc3)cc1-2
3. CN1C(=O)CN=C(c2ccccc2)c2cc(NO)ccc21
4. Nc1ccc(C(F)(F)F)cc1C(=O)O
5. C=CCOc1ccc(C=CC(=O)c2c(OC)cc(OC)cc2OC(=O)CC)cc1
6. CC(C#Cc1cc2ccccc2s1)N(O)C(N)=O (stereo not given)

Found:
1. 108 to 110 °C
2. 223 to 225 °C
3. 211 to 213 °C
4. 191 to 192 °C
5. 83.5 °C
6. 168 to 169 °C

====

I'd appreciate it if you could supply melting point values for the items below.

# count of solved cases: 5
molecule	melting point
COc1cc(-c2nc3ccc(OCCN(C(C)C)C(C)C)cc3n2Cc2ccccc2)cc(OC)c1OC	101 °C
COc1ccc(C2Sc3cc(Oc4ccccc4)ccc3NC(=O)C2O)cc1Cl (centres undefined)	262 to 264 °C
O=C(O)CCCn1nnnc1S	90 to 95 °C
CNCC(=O)N1Cc2cccc3c2N(CC3)c2ccccc21	128 to 130 °C
CCCCC(=O)OCC=C(C)CCC=C(C)CCC=C(C)CCC=C(C)CCC=C(C)CCC=C(C)CCC=C(C)CCC=C(C)CCC=C(C)C	34 to 35 °C

Report melting point for each item below.
1. COc1cc(Nc2nccc(-c3cccc(NCc4cccnc4)c3)n2)cc(OC)c1OC
2. CCOC(=O)Cc1nsc2ccc([N+](=O)[O-])cc12
3. CC(C)c1cccc(Cl)c1Oc1nnc(Cl)cc1Cl

Found:
1: 78 to 80 °C; 2: 91 to 92 °C; 3: 90 to 91 °C

Lookup: Returns the measured melting point for the input molecule. Input: N#CCCNC(=O)c1cccc(-c2ccnc3cc(Cc4cccc(C(F)(F)F)c4)oc23)c1
Found: 164 to 165 °C

====

parameter_measured: melting point

compound	melting point
CC(=O)OCC1COc2c(ccc(F)c2F)N1 (stereo unspecified)	73 to 74 °C
CC(C)(C)OC(=O)NC(Cc1ccccc1)C(O)CNCC(O)C(Cc1ccc(OCC(=O)N2CCOCC2)cc1)NC(=O)OC(C)(C)C (stereo unspecified)	118 to 120 °C
CC(C)(C)c1nc(C=O)cc(N)c1F	129 to 130 °C
O=C(O)CCc1cn(Cc2ccccc2)c2ccccc12	110 to 112 °C
CCOC(=O)c1cc(C=O)[nH]n1	133 to 134 °C
NCc1cc(CN)cc(CN)c1	49 to 51 °C
CC(C)(CN)c1ccc2nc(-c3ccncc3)[nH]c2c1	199 to 202 °C
CC(=Cc1ccc(Oc2cccnc2)cc1)C(=O)O	191 to 194 °C

Report melting point for each item below.
1. N#CN=CNCc1cc(Cl)nc(Cl)c1
2. O=C(NCCCCN1CCC(c2ccc3ccccc3c2)CC1)c1ccc(NC(=O)c2ccc(Cl)cc2)cc1

Found:
1. 160 °C
2. 270 °C

Lookup: Returns the measured melting point for the input compound. Input: CNc1cc(OCC2CO2)ccc1[N+](=O)[O-] (stereo unspecified)
Found: 113 °C
